Biological target: GLP-1R (Homo sapiens, UniProt P43220)
Construct: host or cells: GLP-1R CRE-bla CHO-K1 cells
Sequence (P43220 24-463): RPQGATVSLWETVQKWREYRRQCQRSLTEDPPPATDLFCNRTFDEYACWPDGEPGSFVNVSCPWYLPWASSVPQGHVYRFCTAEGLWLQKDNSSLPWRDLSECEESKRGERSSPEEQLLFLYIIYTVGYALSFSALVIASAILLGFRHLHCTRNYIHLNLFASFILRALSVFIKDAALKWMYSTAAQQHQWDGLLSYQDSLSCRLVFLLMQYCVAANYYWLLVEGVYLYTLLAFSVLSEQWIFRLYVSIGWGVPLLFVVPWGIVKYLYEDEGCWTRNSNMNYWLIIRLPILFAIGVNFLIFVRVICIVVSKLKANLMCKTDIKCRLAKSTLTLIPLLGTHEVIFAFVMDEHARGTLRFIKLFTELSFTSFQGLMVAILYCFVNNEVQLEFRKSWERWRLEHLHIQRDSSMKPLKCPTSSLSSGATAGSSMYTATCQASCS
Sequence (P01275 100-127 partner limits assumed): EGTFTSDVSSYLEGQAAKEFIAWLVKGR
Test: EC20 GLP-1(9-36) PAM cAMP assay: dose response of compound in the presence of fixed concentration of GLP-1(9-36)
Format: cell-based
Conditions: dose response of compound in presence of fixed concentration of GLP-1(9-36), GLP-1R CRE-bla CHO-K1 cells, read-out: EC20 GLP-1(9-36) PAM EC50
VALUE_KIND: EC50

Take a look at these entries with their results.
CCCCCCCOc1ccc(-c2cnc(-c3ccc(C[C@H](NC(=O)c4ccc(N5CCCC5)cc4)C(=O)NCCC(=O)O)cc3)nc2)cc1; 2.5 to 5 µM
CCCCCCCOc1ccc(-c2cnc(-c3ccc(C[C@H](NC(=O)c4ccc(C(C)(C)C)s4)C(=O)N[C@@H](CC(=O)O)C(=O)NCC(N)=O)cc3)nc2)cc1; < 0.8 µM
CCCCCCCOc1ccc(-c2cnc(-c3ccc(C[C@H](NC(=O)c4ccc(C(C)(C)C)s4)C(=O)N[C@@H](CC(=O)O)C(=O)N4CCCC4)cc3)nc2)cc1; < 0.8 µM
CC[C@H]1CC[C@H](c2ccc(-c3cnc(-c4ccc(C[C@H](NC(=O)c5ccc(C(C)(C)C)s5)C(=O)O)cc4)nc3)cc2)CC1; < 0.8 µM
CCCCCCCOc1ccc(-c2cnc(-c3ccc(C[C@H](NC(=O)c4ccc(C(C)(C)C)s4)C(=O)N4CC(C(=O)N(C)C)C4)cc3)nc2)cc1; 2.5 to 5 µM

Field request: EC50 | item: CCCCCCCOc1ccc(-c2cnc(-c3ccc(C[C@H](NC(=O)c4ccc(C(C)(C)C)s4)C(=O)NC(C(=O)O)C4CCOCC4)cc3)nc2)cc1 (stereo partly drawn) < 0.8 µM

Same question for CC(C)(C)c1ccc(C(=O)N[C@@H](Cc2ccc(-c3ncc(-c4ccc(OCC5CCCC5)cc4)cn3)cc2)C(=O)NC(C(=O)O)C(O)c2ccccc2)s1 (stereo partly drawn) please. 0.8 to 2.5 µM

Same question for CCCCCCCOc1ccc(-c2cnc(-c3ccc(C[C@H](NC(=O)c4ccc(C(C)(C)C)s4)C(=O)N4CC=CC4C(=O)O)cc3)nc2)cc1 (stereo partly drawn) please. < 0.8 µM

###

Target: GLP-1R (Homo sapiens)
Construct: host or cells: GLP-1R CRE-bla CHO-K1 cells
Assay: EC20 GLP-1(9-36) PAM cAMP assay: dose response of compound in the presence of fixed concentration of GLP-1(9-36)
Type: cell-based
Conditions: dose response of compound in presence of fixed concentration of GLP-1(9-36), GLP-1R CRE-bla CHO-K1 cells, read-out: EC20 GLP-1(9-36) PAM EC50
Excerpt: EC20 GLP-1(9-36) PAM cAMP Assay: Dose Response of Compound in the Presence of Fixed Concentration of GLP-1 (9-36). […]
Reported values of EC50 for individual entries

Take a look at these entries with their results.
CCCCCCCOc1ccc(-c2cnc(-c3ccc(C[C@H](NC(=O)c4sc(C(C)(C)C)cc4C)C(=O)N4CC[C@H](C(=O)O)C4)cc3)nc2)cc1; 2.5 to 5 µM
CCCCCCOc1ccc(-c2cnc(-c3ccc(C[C@H](NC(=O)c4ccc(C(C)(C)C)cc4)C(=O)NCCC(=O)O)cc3)nc2)cc1 [Compound 711]; 2.5 to 5 µM
COCCCCCOc1ccc(-c2cnc(-c3ccc(C[C@H](NC(=O)c4ccc(C(C)(C)C)cc4)C(=O)NCCC(=O)O)cc3)nc2)cc1; 5 to 10 µM
Cc1ccc(-c2ccc(-c3cnc(-c4ccc(C[C@H](NC(=O)c5ccc(C(C)(C)C)cc5)C(=O)N[C@H](C)C(=O)O)cc4)nc3)cc2)cc1; 2.5 to 5 µM
CCCCCCCOc1ccc(-c2cnc(-c3ccc(C[C@H](NC(=O)c4ccc(C(C)(C)C)s4)C(=O)NCCOC)cc3)nc2)cc1; 0.8 to 2.5 µM

// switching to the query compound
Field request: EC50 | item: CCCOc1ccc(-c2cnc(-c3ccc(C[C@H](NC(=O)c4ccc(C(C)(C)C)s4)C(=O)N4CC[C@H](C(=O)O)C4)cc3)nc2)cc1 2.5 to 5 µM

###

Reported values of EC50 for individual entries
Molecular target: GLP-1R (Homo sapiens, UniProt P43220)
Construct: host or cells: GLP-1R CRE-bla CHO-K1 cells
Experiment: EC20 GLP-1(9-36) PAM cAMP assay: dose response of compound in the presence of fixed concentration of GLP-1(9-36)
Assay type: cell-based
Conditions: dose response of compound in presence of fixed concentration of GLP-1(9-36), GLP-1R CRE-bla CHO-K1 cells, read-out: EC20 GLP-1(9-36) PAM EC50

Field request: EC50 | item: CCCCCCCOc1ccc(-c2cnc(-c3ccc(C[C@H](NC(=O)c4ccc(C(C)(C)C#N)cc4)C(=O)N[C@H](C)C(=O)O)cc3)nc2)cc1 2500 to 5000 nM

Same question for CCCCCCCOc1ccc(-c2cnc(-c3ccc(CC(NC(=O)c4ccc(C(C)(C)C)s4)C(=O)Nc4cccc(C(=O)O)c4)cc3)nc2)cc1 (stereo not drawn) please. 800 to 2500 nM

Same question for CC(C)(C)c1ccc(C(=O)N[C@@H](Cc2ccc(-c3ncc(-c4ccc(-c5ccccc5Cl)cc4F)cn3)cc2)C(=O)N2CC(C(=O)O)C2)s1 please. < 800 nM

Same question for CCCCCCCOc1ccc(-c2cnc(-c3ccc(C[C@H](NC(=O)c4ccc(C(C)(C)C)s4)C(=O)N[C@@H](CC(=O)O)C(=O)N(C)C)cc3)nc2)cc1 please. < 800 nM

Same question for CC(C)CCc1noc(-c2cnc(-c3ccc(C[C@H](NC(=O)c4ccc(C(C)(C)C)cc4)C(=O)NCCC(=O)O)cc3)nc2)n1 please. 800 to 2500 nM

Same question for CC[C@H]1CC[C@H](c2ccc(-c3cnc(-c4ccc(C[C@H](NC(=O)c5ccc(C6CC6)cc5)C(=O)N5CC(C(=O)O)C5)cc4)nc3)cc2)CC1 please. < 800 nM

###

Target: GLP-1R (Homo sapiens)
Construct: host or cells: GLP-1R CRE-bla CHO-K1 cells
Assay: EC20 GLP-1(9-36) PAM cAMP assay: dose response of compound in the presence of fixed concentration of GLP-1(9-36)
Type: cell-based
Conditions: dose response of compound in presence of fixed concentration of GLP-1(9-36), GLP-1R CRE-bla CHO-K1 cells, read-out: EC20 GLP-1(9-36) PAM EC50
pEC50: −log10 of the molar value.
Reported values of pEC50 for individual entries

Field request: pEC50 | item: CCCCCCCOc1ccc(-c2cnc(-c3ccc(C[C@H](NC(=O)c4ccc(C(C)(C)C)s4)C(=O)N[C@@H](C(=O)O)C4CC4)cc3)nc2)cc1 > 6.10

Same question for CCCCCCCOc1ccc(-c2cnc(-c3ccc(C[C@H](NC(=O)c4ccc(C(C)(C)C)s4)C(=O)N[C@@H](Cc4cscn4)C(=O)O)cc3)nc2)cc1 please. > 6.10

Same question for CCCCCCCCOc1ccc(-c2cnc(-c3ccc(C[C@H](NC(=O)c4ccc(C(C)(C)C)s4)C(=O)NC(C(=O)O)C(O)c4ccccc4)cc3)nc2)cc1 (stereo partly drawn) please. 5.60 to 6.10

Same question for CCCCCCCOc1ccc(-c2cnc(-c3ccc(C[C@H](NC(=O)c4ccc(C(C)(C)C)cc4)C(=O)NCC(=O)NCC(=O)O)cc3)nc2)cc1 please. > 6.10

Same question for CCCCCCCOc1ccc(-c2cnc(-c3ccc(C[C@H](NC(=O)c4ccc(C(C)(C)C)s4)C(=O)N4CCC4C(=O)O)cc3)nc2)cc1 (stereo partly drawn) please. > 6.10

Same question for CCC(C)COc1ccc(-c2cnc(-c3ccc(C[C@H](NC(=O)c4ccc(C(C)(C)C)s4)C(=O)N4CC(C(=O)O)C4)cc3)nc2)cc1 (stereo partly drawn) please. 5.60 to 6.10

Same question for CC(=O)c1cccc(-c2ccc(-c3cnc(-c4ccc(C[C@H](NC(=O)c5ccc(C(C)(C)C)s5)C(=O)N5CC(C(=O)O)C5)cc4)nc3)c(F)c2)c1 please. > 6.10

###

Target: GLP-1R (Homo sapiens, UniProt P43220)
Construct: host or cells: GLP-1R CRE-bla CHO-K1 cells
Experiment: EC20 GLP-1(9-36) PAM cAMP assay: dose response of compound in the presence of fixed concentration of GLP-1(9-36)
Assay type: cell-based
Settings: GLP-1R CRE-bla CHO-K1 cells, compound dose response with fixed concentration of GLP-1(9-36), read-out: EC20 GLP-1(9-36) PAM EC50
VALUE_KIND: EC50

Take a look at these entries with their results.
CCC[C@H]1CC[C@H](C2CCN(c3cnc(-c4ccc(C[C@H](NC(=O)c5ccc(CC)s5)C(=O)N5CC(C(=O)O)C5)cc4)nc3)CC2)CC1 [Compound 1533]; < 0.8 µM
CCCc1ccc(-c2ccc(-c3cnc(-c4ccc(C[C@H](NC(=O)c5ccc(C(C)C)s5)C(=O)N5CC(C(=O)O)C5)cc4)nc3)c(F)c2)cc1 [Compound 1398]; < 0.8 µM
CC(C)CCCOc1ccc(-c2cnc(-c3ccc(C[C@H](NC(=O)c4ccc(C5CC5)cc4)C(=O)N4CC(C(=O)O)C4)cc3)nc2)cc1 [Compound 1233]; 0.8 to 2.5 µM
CCC[C@H]1CC[C@H](C2CCN(c3cnc(-c4ccc(C[C@H](NC(=O)c5ccc(C(C)(C)C)s5)C(=O)N[C@@H](C(=O)O)C(C)C)cc4)nc3)CC2)CC1 [Compound 1449]; < 0.8 µM

Field request: EC50 | item: CCC[C@H]1CC[C@H](C2CCN(c3cnc(-c4ccc(C[C@H](NC(=O)c5ccc(C(C)(C)C)s5)C(=O)N5CC[C@H](C(=O)O)C5)cc4)nc3)CC2)CC1 [Compound 1416] < 0.8 µM
